tested on: UACC-62 melanoma; experiment: NCI tumour cell line growth inhibition, 48 h
MEASURE NAME: GI50

Please review the entries below; each comes with its answer.
{"SMILES REPRESENTATION": "O=C1NN(c2ccccc2)C(=O)/C1=C/c1ccc(Br)o1", "GI50": "11.8 µM"}
{"SMILES REPRESENTATION": "N#Cc1c(N)nc(N2CCOCC2)c(C#N)c1-c1ccccc1Cl", "GI50": "18.9 µM"}
{"SMILES REPRESENTATION": "CCSc1nnc(-c2ccc3ccccc3c2O)n1-c1ccc(Cl)cc1", "GI50": "4.6 µM"}
{"SMILES REPRESENTATION": "CN1CCN(c2ccc(C(=O)Nc3cc(-c4cccc(NS(=O)(=O)c5ccccc5)c4)[nH]n3)cc2)CC1", "GI50": "11 µM"}

Now let's try a different one.
Query C[C@H](N)C(=O)N1C[C@H](CCCB(O)O)[C@](N)(C(=O)O)C1 yields GI50 of > 100 µM
